B1: FBF1 (parent)
chain: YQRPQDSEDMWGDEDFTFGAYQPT

- Variants of: B1
- PROCEDURE_SUMMARY: protein stability index of a GFP-peptide fusion (GPS, HEK-293T) (PSI 1-6); higher = more stable;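 also: lentivirally expressed fusions sorted by FACS into six bins by GFP to DsRed ratio, PSI derived from sequencing read proportions per bin multiplied by bin number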
- CONDITION_DESCRIPTION: c terminus: a fixed tail appended
For each entry below, report its protein stability index value.

Consider the reported protein stability index for these variants:
INSERT INTO results (variant_notation, endpoint_result) VALUES
  ('T24W', 1.99),
  ('P4C', 2.7),
  ('D15V', 1.86),
  ('F18D', 3.9),
  ('D13V', 1.8),
  ('G19C', 2.53),
  ('Q5V', 2.56),
  ('R3A', 3.44);

Please supply protein stability index for each of the following items, keeping them in order.
1. D9Q
2. Q5A
3. D13E
4. W11N
5. E14F
6. P4R

Reply |
1: 2.23; 2: 2.49; 3: 3.13; 4: 4.44; 5: 1.78; 6: 2.26

Please supply protein stability index for each of the following items, keeping them in order.
1. R3L
2. D6Q
3. E8S

Reply |
1. 3.46
2. 2.26
3. 2.32
